- measurement protocol: Plasma clearance in rat at 3 mg/kg, iv and 10 mg/kg, po
- Assay type: ADME, organism-based
reported endpoint: clearance (mL/min/kg)
Answers are plain numbers, in mL/min/kg.

Query block: Write down clearance measured for item CC(C)(C)N1CCN(c2ccc(N3CCN(C(=O)N[C@H]4C5CC6CC4C[C@](C(N)=O)(C6)C5)c4ccccc43)nc2)CC1
Result block: 86.7

====

- measurement protocol: Solubility of the compound in aqueous buffer up to pH 4.5
- Type: physicochemical
reported endpoint: solubility

Query block: Write down solubility measured for item CC(C)(C)N1CCN(c2ccc(N3CCN(C(=O)N[C@H]4C5CC6CC4C[C@](C(N)=O)(C6)C5)c4ccccc43)nc2)CC1
Result block: > 2000 µg/mL

====

- Test system: Liver microsomes
- measurement protocol: Metabolic stability in rat liver microsomes
- Format: ADME, Microsome
reported endpoint: Stability (%)
Numbers only, in %.

Would you please look over these solved cases?
compound=CS(=O)(=O)N1CCN(c2cnc(N3CCN(C(=O)N[C@H]4C5CC6CC4C[C@](O)(C6)C5)c4ccccc43)nc2)CC1 test_value=24
compound=CS(=O)(=O)N1CCN(c2ccc(N3CCN(C(=O)N[C@H]4C5CC6CC4C[C@](C(N)=O)(C6)C5)c4ccccc43)cc2)CC1 test_value=26
compound=COc1ccc(-c2cnc(N3CCN(C(=O)N[C@H]4C5CC6CC4C[C@](O)(C6)C5)c4ccccc43)nc2)cc1 test_value=33

Could you tell me Stability for each of these molecules? They are listed below.
1. COc1ccc(-c2cnc(N3CCN(C(=O)N[C@H]4C5CC6CC4C[C@](C(N)=O)(C6)C5)c4ccccc43)nc2)cc1
2. CC(=O)N1CCN(c2ccc(N3CCN(C(=O)N[C@H]4C5CC6CC4C[C@](O)(C6)C5)c4ccccc43)nc2)CC1

Result block:
32
18

Could you tell me Stability for each of these molecules? They are listed below.
1. CS(=O)(=O)N1CCN(c2ccc(N3CCN(C(=O)N[C@H]4C5CC6CC4C[C@](O)(C6)C5)c4ccccc43)cc2)CC1
2. CC(C)(C)N1CCN(c2ccc(N3CCN(C(=O)N[C@H]4C5CC6CC4C[C@](O)(C6)C5)c4ccccc43)nc2)CC1

Result block:
[17, 20]

====

pIC50: −log10 of the molar value.
A short record of pIC50 observed with Cytochrome P450 3A4 (Homo sapiens, UniProt P08684) follows.
Sequence (P08684 whole entry): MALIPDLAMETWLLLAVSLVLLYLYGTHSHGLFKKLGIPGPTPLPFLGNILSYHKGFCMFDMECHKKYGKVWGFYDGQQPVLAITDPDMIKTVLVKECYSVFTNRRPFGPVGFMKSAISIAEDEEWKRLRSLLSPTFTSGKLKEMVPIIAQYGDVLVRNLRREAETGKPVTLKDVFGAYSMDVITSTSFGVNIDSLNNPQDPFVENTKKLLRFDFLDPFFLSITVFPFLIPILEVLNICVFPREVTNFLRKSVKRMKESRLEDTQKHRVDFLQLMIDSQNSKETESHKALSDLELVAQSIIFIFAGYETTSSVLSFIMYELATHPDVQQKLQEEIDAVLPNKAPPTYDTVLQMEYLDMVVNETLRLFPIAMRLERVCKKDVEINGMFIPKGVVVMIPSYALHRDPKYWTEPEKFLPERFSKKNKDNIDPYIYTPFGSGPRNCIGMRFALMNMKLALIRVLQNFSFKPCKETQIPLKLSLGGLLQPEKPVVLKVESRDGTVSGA

Could you tell me pIC50 for each of these compounds? They are listed below.
1. CC(C)(C)N1CCN(c2ccc(N3CCN(C(=O)N[C@H]4C5CC6CC4C[C@](C(N)=O)(C6)C5)c4ccccc43)nc2)CC1
2. CS(=O)(=O)N1CCN(c2ccc(N3CCN(C(=O)N[C@H]4C5CC6CC4C[C@](O)(C6)C5)c4ccccc43)nc2)CC1
3. CC(=O)N1CCN(c2ccc(N3CCN(C(=O)N[C@H]4C5CC6CC4C[C@](O)(C6)C5)c4ccccc43)nc2)CC1

Result block:
< 4.30
< 4.52
< 4.52

====

- measurement protocol: Plasma concentration in C57Bl/6J mouse at 10 mg/kg, po 22 hrs post last dose
- Type: ADME, organism-based
- Design: dose 10 mg/kg, route oral
reported endpoint: concentration at 22 h (nM)
Answers are plain numbers, in nM.

Query block: Write down concentration at 22 h measured for item CC(C)(C)N1CCN(c2ccc(N3CCN(C(=O)N[C@H]4C5CC6CC4C[C@](C(N)=O)(C6)C5)c4ccccc43)nc2)CC1
Result block: 2.6

====

- measurement protocol: in vivo
- test parameters: rat, adipose tissue, po, 10 mg/kg
reported endpoint: Kp
Numbers only.

Query block: Write down Kp measured for item CC(C)(C)N1CCN(c2ccc(N3CCN(C(=O)N[C@H]4C5CC6CC4C[C@](C(N)=O)(C6)C5)c4ccccc43)nc2)CC1
Result block: 2.2

====

- tested target: 11-beta-hydroxysteroid dehydrogenase 1 (Homo sapiens, UniProt P28845)
- Sequence (P28845 whole entry): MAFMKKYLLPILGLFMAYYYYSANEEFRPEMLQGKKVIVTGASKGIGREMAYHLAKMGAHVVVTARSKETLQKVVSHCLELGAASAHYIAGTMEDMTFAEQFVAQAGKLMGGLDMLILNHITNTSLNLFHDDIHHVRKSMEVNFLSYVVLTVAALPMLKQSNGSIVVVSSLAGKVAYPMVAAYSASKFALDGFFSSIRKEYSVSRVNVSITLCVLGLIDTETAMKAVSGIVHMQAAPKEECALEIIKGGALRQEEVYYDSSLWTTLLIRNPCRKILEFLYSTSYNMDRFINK
- measurement protocol: Inhibition of human recombinant 11beta-HSD1 by scintillation proximity assay
reported endpoint: pIC50
Answers are plain numbers, as −log10 of the molar value.

Query block: Write down pIC50 measured for item CC(C)(C)N1CCN(c2ccc(N3CCN(C(=O)N[C@H]4C5CC6CC4C[C@](C(N)=O)(C6)C5)c4ccccc43)nc2)CC1
Result block: 8.40

====

- tested target: 11-beta-hydroxysteroid dehydrogenase 1 (Mus musculus, UniProt P50172)
- Sequence (P50172 whole entry): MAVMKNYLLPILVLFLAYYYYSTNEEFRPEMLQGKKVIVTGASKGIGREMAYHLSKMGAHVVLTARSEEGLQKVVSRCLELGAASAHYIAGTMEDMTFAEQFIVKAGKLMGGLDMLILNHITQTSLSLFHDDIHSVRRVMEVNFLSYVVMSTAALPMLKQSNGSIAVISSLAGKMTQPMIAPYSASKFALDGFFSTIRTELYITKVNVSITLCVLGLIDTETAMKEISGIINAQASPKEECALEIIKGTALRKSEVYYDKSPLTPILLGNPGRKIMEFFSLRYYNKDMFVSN
- measurement protocol: Inhibition of mouse recombinant 11beta-HSD1 by scintillation proximity assay
reported endpoint: IC50 (nM)
Give bare numbers, in nM.

Would you please look over these solved cases?
compound=O=C(N[C@H]1C2CC3CC1C[C@](O)(C3)C2)N1CCN(c2ccc(N3CCN(S(=O)(=O)C4CC4)CC3)cn2)c2ccccc21 unit_label=nM test_value=21
compound=CS(=O)(=O)N1CCN(c2cnc(N3CCN(C(=O)N[C@H]4C5CC6CC4C[C@](O)(C6)C5)c4ccccc43)nc2)CC1 unit_label=nM test_value=1
compound=COc1ccc(-c2cnc(N3CCN(C(=O)N[C@H]4C5CC6CC4C[C@](OC(N)=O)(C6)C5)c4ccccc43)nc2)cc1 unit_label=nM test_value=5

Now consider a different compound.
Query block: Write down IC50 measured for item CS(=O)(=O)N1CCN(c2ccc(N3CCN(C(=O)N[C@H]4C5CC6CC4C[C@](O)(C6)C5)c4ccccc43)cc2)CC1
Result block: 1

====

Kindly state Stability for each of the entries shown.
- Test system: Liver
- measurement protocol: Metabolic stability in mouse liver microsomes
- Type: ADME, Microsome
One number for each entry, in %.

Would you please look over these solved cases?
compound=CS(=O)(=O)N1CCN(c2ccc(N3CCN(C(=O)N[C@H]4C5CC6CC4C[C@](O)(C6)C5)c4ccccc43)cc2)CC1 tested_target=Liver unit_label=% test_value=9
compound=CS(=O)(=O)N1CCN(c2cnc(N3CCN(C(=O)N[C@H]4C5CC6CC4C[C@](O)(C6)C5)c4ccccc43)nc2)CC1 tested_target=Liver unit_label=% test_value=18
compound=CC(=O)N1CCN(c2ccc(N3CCN(C(=O)N[C@H]4C5CC6CC4C[C@](O)(C6)C5)c4ccccc43)nc2)CC1 tested_target=Liver unit_label=% test_value=14
compound=CC(C)(C)N1CCN(c2ccc(N3CCN(C(=O)N[C@H]4C5CC6CC4C[C@](C(N)=O)(C6)C5)c4ccccc43)nc2)CC1 tested_target=Liver unit_label=% test_value=13
compound=CS(=O)(=O)N1CCN(c2ccc(N3CCN(C(=O)N[C@H]4C5CC6CC4C[C@](C(N)=O)(C6)C5)c4ccccc43)cc2)CC1 tested_target=Liver unit_label=% test_value=22
compound=NC(=O)[C@]12CC3CC(C1)[C@@H](NC(=O)N1CCN(c4ccc(N5CCN(S(=O)(=O)C6CC6)CC5)cn4)c4ccccc41)C(C3)C2 tested_target=Liver unit_label=% test_value=18
compound=COc1ccc(-c2cnc(N3CCN(C(=O)N[C@H]4C5CC6CC4C[C@](OC(N)=O)(C6)C5)c4ccccc43)nc2)cc1 tested_target=Liver unit_label=% test_value=96

Now consider a different compound.
Query block: Write down Stability measured for item COc1ccc(-c2cnc(N3CCN(C(=O)N[C@H]4C5CC6CC4C[C@](O)(C6)C5)c4ccccc43)nc2)cc1
Result block: 21

====

- measurement protocol: Volume of distribution at steady state in rat at 3 mg/kg, iv and 10 mg/kg, po
- Assay type: ADME, organism-based
- test parameters: in vivo, read-out: Vdss
reported endpoint: Vd (L/kg)
One number for each entry, in L/kg.

Query block: Write down Vd measured for item CC(C)(C)N1CCN(c2ccc(N3CCN(C(=O)N[C@H]4C5CC6CC4C[C@](C(N)=O)(C6)C5)c4ccccc43)nc2)CC1
Result block: 14

====

- Tested on: Liver
- measurement protocol: Metabolic stability in mouse liver microsomes
- Type: ADME, Microsome
reported endpoint: Stability (%)
One number for each entry, in %.

Would you please look over these solved cases?
compound=O=C(N[C@H]1C2CC3CC1C[C@](O)(C3)C2)N1CCN(c2ccc(N3CCN(S(=O)(=O)C4CC4)CC3)cn2)c2ccccc21 tested_target=Liver reported_endpoint=Stability test_value=22
compound=CS(=O)(=O)N1CCN(c2ccc(N3CCN(C(=O)N[C@H]4C5CC6CC4C[C@](O)(C6)C5)c4ccccc43)nc2)CC1 tested_target=Liver reported_endpoint=Stability test_value=18
compound=CC(C)(C)N1CCN(c2ccc(N3CCN(C(=O)N[C@H]4C5CC6CC4C[C@](O)(C6)C5)c4ccccc43)nc2)CC1 tested_target=Liver reported_endpoint=Stability test_value=6

Query block: Specify Stability for COc1ccc(-c2cnc(N3CCN(C(=O)N[C@H]4C5CC6CC4C[C@](C(N)=O)(C6)C5)c4ccccc43)nc2)cc1 , system Liver.
Result block: 27

====

- Tested on: Liver microsomes
- measurement protocol: Metabolic stability in rat liver microsomes
- Assay type: ADME, Microsome
Kindly state Stability for each of the entries shown.
Give bare numbers, in %.

Would you please look over these solved cases?
compound=COc1ccc(-c2cnc(N3CCN(C(=O)N[C@H]4C5CC6CC4C[C@](OC(N)=O)(C6)C5)c4ccccc43)nc2)cc1 reported_endpoint=Stability unit_label=% test_value=70
compound=NC(=O)[C@]12CC3CC(C1)[C@@H](NC(=O)N1CCN(c4ccc(N5CCN(S(=O)(=O)C6CC6)CC5)cn4)c4ccccc41)C(C3)C2 reported_endpoint=Stability unit_label=% test_value=31
compound=CC(C)(C)N1CCN(c2ccc(N3CCN(C(=O)N[C@H]4C5CC6CC4C[C@](C(N)=O)(C6)C5)c4ccccc43)nc2)CC1 reported_endpoint=Stability unit_label=% test_value=15

Could you tell me Stability for each of these compounds? They are listed below.
1. CS(=O)(=O)N1CCN(c2ccc(N3CCN(C(=O)N[C@H]4C5CC6CC4C[C@](O)(C6)C5)c4ccccc43)nc2)CC1
2. O=C(N[C@H]1C2CC3CC1C[C@](O)(C3)C2)N1CCN(c2ccc(N3CCN(S(=O)(=O)C4CC4)CC3)cn2)c2ccccc21

Result block:
1: 12; 2: 23
